Target: T1, LIN7B, Q9HAP6
T1 sequence (Q9HAP6 88-185, limits assumed, looked up): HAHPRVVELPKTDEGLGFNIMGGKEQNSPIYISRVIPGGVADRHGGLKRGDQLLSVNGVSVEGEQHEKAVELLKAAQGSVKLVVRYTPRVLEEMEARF
Experiment: holdup assay
Design: key: below the threshold = too weak to quantify, mostly under pKd 3.1 to 4
Conditions: plain residues with an end cap or a label only (N-terminal biotin on a linker: ado-ado)
observation-type: pKd

INSERT INTO results (binder, meas_value) VALUES
  ('TETASVCTKV [SLC23A1, Q9UHI7]', 'below the threshold'),
  ('QKNKDKEYYV [NRXN3_rs746444206, Q9Y4C0]', 3.59),
  ('FVHPILQSAV [PRKCA, P17252]', 'below the threshold'),
  ('GFGEERESIL [KIDINS220, Q9ULH0]', 'below the threshold'),
  ('EDLTKNHDEL [RCN1, Q15293]', 'below the threshold'),
  ('EEPEERHTEL [CES2, O00748]', 3.89);
